- SYSTEM_TESTED: Recombinant human renin (Homo sapiens)
- Construct: isolate the active form (residues 67-406); made in house; host or cells: FreeStyle 293-F cells (transient expression of pcDNA3.1(+)/hREN)
- Sequence (P00797 67-406): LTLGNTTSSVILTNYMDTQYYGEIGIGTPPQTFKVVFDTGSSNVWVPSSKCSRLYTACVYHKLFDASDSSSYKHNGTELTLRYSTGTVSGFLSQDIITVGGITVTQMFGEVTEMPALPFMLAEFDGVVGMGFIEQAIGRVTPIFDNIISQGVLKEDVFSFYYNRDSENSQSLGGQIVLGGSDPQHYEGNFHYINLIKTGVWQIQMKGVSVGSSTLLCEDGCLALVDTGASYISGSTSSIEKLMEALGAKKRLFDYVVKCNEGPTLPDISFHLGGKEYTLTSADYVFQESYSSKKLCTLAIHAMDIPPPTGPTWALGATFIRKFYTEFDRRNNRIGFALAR
- EXPERIMENT_DESCRIPTION: In vitro enzymatic activity assay of renin inhibitors (fluorogenic peptide substrate)
- Format: biochemical
- CONDITION: read-out: IC50 of Exemplified Compounds Against Renin
# Lookup of reported IC50 keyed by entry

COMPOUND | SYSTEM_TESTED | ENDPOINT_LABEL | VALUE
COCCCn1c([C@@H]2CCCN(C(=O)C[C@H](N)CNC(=O)Nc3ccc(OC)cc3C)C2)nc2ccccc21 [Compound 292] | Recombinant human renin (Homo sapiens) | IC50 | 100 to 1000 nM
COCCCn1c([C@@H]2CCCN(C(=O)C[C@H](N)c3cnccc3OC)C2)nc2ccccc21 [Compound 120] | Recombinant human renin (Homo sapiens) | IC50 | > 1000 nM
COCCCn1c([C@@H]2CCCN(C(=O)C[C@H](N)Cc3ccc(-c4ccc(C(=O)N[C@H](C)CO)cc4)cc3)C2)nc2ccccc21 [Compound 186] | Recombinant human renin (Homo sapiens) | IC50 | < 100 nM

Okay, now this compound:
Any idea what its IC50 is? The compound is COCCCn1c([C@@H]2CCCN(C(=O)C[C@H](N)Cc3ccc(N4CCN(c5ccccc5)CC4)cc3)C2)nc2ccccc21 [Compound 231]
100 to 1000 nM

----------
- SYSTEM_TESTED: Recombinant human renin (Homo sapiens)
- Construct: isolate the active form (residues 67-406); made in house; host or cells: FreeStyle 293-F cells (transient expression of pcDNA3.1(+)/hREN)
- EXPERIMENT_DESCRIPTION: In vitro enzymatic activity assay of renin inhibitors (fluorogenic peptide substrate)
- Assay type: biochemical
- CONDITION: read-out: IC50 of Exemplified Compounds Against Renin
pIC50: −log10 of the molar value.
ENDPOINT_LABEL: pIC50

// worked examples, pIC50 included
COMPOUND | pIC50
COCCCn1c([C@@H]2CCCN(C(=O)C[C@H](N)Cc3ccc(C(C)(C)C)cc3)C2)nc2ccccc21 | > 7.00
N[C@@H](CC(=O)N1CCCC(c2nc3ccccc3[nH]2)C1)c1cccc([N+](=O)[O-])c1 (stereo partly drawn) | < 6.00

Any idea what its pIC50 is? The compound is COCCCn1c([C@@H]2CCCN(C(=O)C[C@H](N)Cc3ccc(-c4ccc(N5CCNC5=O)cc4)cc3)C2)nc2c(F)cccc21
> 7.00

Any idea what its pIC50 is? The compound is CC[C@@H](N)C(=O)N1CCCC(c2nc3ccccc3[nH]2)C1 (stereo partly drawn)
< 6.00

Any idea what its pIC50 is? The compound is COCCCn1c([C@@H]2CCCN(C(=O)C[C@H](N)Cc3ccc(Oc4ccccc4)cc3)C2)nc2ccccc21
> 7.00

Any idea what its pIC50 is? The compound is COCCCn1c([C@@H]2CCCN(C(=O)C[C@H](N)Cc3ccc(-c4c[nH]c(=O)[nH]c4=O)cc3)C2)nc2ccccc21
> 7.00

Any idea what its pIC50 is? The compound is COCCCn1c(C2CCCN(C(=O)C[C@@H](N)Cc3ccc(Cl)cc3)C2)nc2ccccc21 (stereo partly drawn)
< 6.00

Any idea what its pIC50 is? The compound is COCCCn1c([C@@H]2CCCN(C(=O)C[C@H](N)CNC(=O)c3ccc(-c4cccc([N+](=O)[O-])c4)o3)C2)nc2ccccc21
6.00 to 7.00

Any idea what its pIC50 is? The compound is N[C@@H](CC(=O)N1CCCC(c2nc3ccccc3[nH]2)C1)c1ccc(C(F)(F)F)cc1 (stereo partly drawn)
< 6.00

Any idea what its pIC50 is? The compound is COCCCn1c([C@@H]2CCCN(C(=O)C[C@H](N)CNC(=O)c3ccc(Oc4ccccc4)cc3)C2)nc2ccccc21
6.00 to 7.00

Any idea what its pIC50 is? The compound is COCCCn1c([C@@H]2CCCN(C(=O)[C@@H]3CN(S(=O)(=O)c4ccccc4C(F)(F)F)C[C@H]3N)C2)nc2ccccc21
< 6.00
